System: Calu-3 (lung)
Experiment: Growth inhibition assay
Assay type: cell-based
Conditions: Homo sapiens, Calu-3, 72 h, read-out: IC50, growth inhibition of cultured cells
READOUT: IC50 (nM)
Give bare numbers, in nM.

According to the records, this compound `CS(=O)(=O)CCNCc1ccc(-c2ccc3ncnc(Nc4ccc(OCc5cccc(F)c5)c(Cl)c4)c3c2)o1` displays IC50 of 510

----------
System: SK-BR-3 (breast)
Test: Growth inhibition assay
Format: cell-based
Conditions: Homo sapiens, SK-BR-3, 72 h, read-out: IC50, growth inhibition of cultured cells
READOUT: IC50 (nM)
Numbers only, in nM.

GET /value?item= CS(=O)(=O)CCNCc1ccc(-c2ccc3ncnc(Nc4ccc(OCc5cccc(F)c5)c(Cl)c4)c3c2)o1 [Lapatinib] &field=IC50 returns 56.9
